B1: RSPH3 (parent)
chain: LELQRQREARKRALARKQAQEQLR

variants of: B1; assay: protein stability index of a GFP-peptide fusion (GPS, HEK-293T) (PSI 1-6); higher = more stable; details: c terminus: a fixed tail appended;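 also: lentivirally expressed fusions sorted by FACS into six bins by GFP to DsRed ratio, PSI derived from sequencing read proportions per bin multiplied by bin number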
Here the recorded protein stability index is given for each entry.
Answer with a bare number; do not write a unit.

# count of solved cases: 10
Q22A; 4.19
Q4V; 3.43
A19Q; 4.54
A9Y; 3.71
R24S; 3.8
E8K; 3.95
Q4E; 4.3
A19N; 4.08
R7T; 4.43
A15K; 3.57

Req: Look up protein stability index: Q20S
Resp: 3.77

Req: // repeat for R16H and report
Resp: 4.14

Req: Next: Q4N
Resp: 3.76

Req: Another variant to look at: R24E
Resp: 4.56
